target: human CD33 H143A (human, UniProt P20138 18-364); assay: flow cytometry on HEK293-T, alanine scan
Sequence (P20138 18-364 H143A limits assumed): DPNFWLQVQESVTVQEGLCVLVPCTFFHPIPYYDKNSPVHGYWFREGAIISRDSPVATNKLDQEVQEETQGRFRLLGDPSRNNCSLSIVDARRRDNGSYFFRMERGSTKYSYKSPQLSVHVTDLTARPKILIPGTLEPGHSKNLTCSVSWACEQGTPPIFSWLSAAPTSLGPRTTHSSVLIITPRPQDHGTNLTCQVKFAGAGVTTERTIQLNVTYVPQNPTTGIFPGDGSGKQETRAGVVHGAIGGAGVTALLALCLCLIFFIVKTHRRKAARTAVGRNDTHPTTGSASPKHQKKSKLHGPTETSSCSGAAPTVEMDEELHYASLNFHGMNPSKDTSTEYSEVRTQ
Readout label: Mean % WT Binding (% WT binding)
Record the value in % WT binding, omitting the unit from your answer.

Input line: Provide one value: measured Mean % WT Binding of Refmab #1 (antibody, V domains shown, The alanine scan used IgG or Fab; also called hP67.6) VH: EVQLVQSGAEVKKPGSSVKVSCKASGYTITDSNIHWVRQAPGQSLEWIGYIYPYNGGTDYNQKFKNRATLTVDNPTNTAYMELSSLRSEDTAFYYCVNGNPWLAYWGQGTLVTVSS VL: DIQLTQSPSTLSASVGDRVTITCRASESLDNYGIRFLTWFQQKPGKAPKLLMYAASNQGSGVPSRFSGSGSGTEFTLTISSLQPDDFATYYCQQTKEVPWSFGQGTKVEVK
Output line: 88.8

Input line: Provide one value: measured Mean % WT Binding of Refmab #3 (antibody, V domains shown, The alanine scan used IgG or Fab) VH: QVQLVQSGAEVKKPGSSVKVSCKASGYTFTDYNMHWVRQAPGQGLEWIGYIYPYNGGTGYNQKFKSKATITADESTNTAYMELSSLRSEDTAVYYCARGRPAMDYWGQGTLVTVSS VL: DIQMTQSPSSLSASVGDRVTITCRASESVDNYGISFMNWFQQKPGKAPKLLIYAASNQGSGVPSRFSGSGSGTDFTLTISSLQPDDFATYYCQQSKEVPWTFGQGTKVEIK
Output line: 97.9

Input line: Provide one value: measured Mean % WT Binding of Refmab #2 (antibody, V domains shown, The alanine scan used IgG or Fab) VH: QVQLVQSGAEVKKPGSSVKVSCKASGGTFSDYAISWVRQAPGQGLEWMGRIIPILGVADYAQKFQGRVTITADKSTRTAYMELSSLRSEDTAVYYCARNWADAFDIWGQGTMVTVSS VL: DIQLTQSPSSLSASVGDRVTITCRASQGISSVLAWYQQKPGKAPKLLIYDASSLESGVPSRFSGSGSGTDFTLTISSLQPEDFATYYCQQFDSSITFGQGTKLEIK
Output line: 104

Input line: Provide one value: measured Mean % WT Binding of Refmab #4 (antibody, V domains shown, The alanine scan used IgG or Fab) VH: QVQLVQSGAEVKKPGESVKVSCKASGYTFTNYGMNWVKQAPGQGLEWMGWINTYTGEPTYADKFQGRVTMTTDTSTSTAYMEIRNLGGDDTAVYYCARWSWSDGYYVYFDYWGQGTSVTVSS VL: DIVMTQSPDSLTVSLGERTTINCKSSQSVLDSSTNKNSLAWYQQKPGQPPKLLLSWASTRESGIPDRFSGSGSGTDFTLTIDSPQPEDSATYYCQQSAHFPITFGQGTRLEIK
Output line: 106
